Listed here: items and their measured pIC50.
Biological target: USP7 (Homo sapiens, UniProt Q93009)
Construct: His tag (from pFastBac-HT vector) (N); made in house; host or cells: insect cells (Sf9 or High Five), baculovirus
Sequence (Q93009 whole entry): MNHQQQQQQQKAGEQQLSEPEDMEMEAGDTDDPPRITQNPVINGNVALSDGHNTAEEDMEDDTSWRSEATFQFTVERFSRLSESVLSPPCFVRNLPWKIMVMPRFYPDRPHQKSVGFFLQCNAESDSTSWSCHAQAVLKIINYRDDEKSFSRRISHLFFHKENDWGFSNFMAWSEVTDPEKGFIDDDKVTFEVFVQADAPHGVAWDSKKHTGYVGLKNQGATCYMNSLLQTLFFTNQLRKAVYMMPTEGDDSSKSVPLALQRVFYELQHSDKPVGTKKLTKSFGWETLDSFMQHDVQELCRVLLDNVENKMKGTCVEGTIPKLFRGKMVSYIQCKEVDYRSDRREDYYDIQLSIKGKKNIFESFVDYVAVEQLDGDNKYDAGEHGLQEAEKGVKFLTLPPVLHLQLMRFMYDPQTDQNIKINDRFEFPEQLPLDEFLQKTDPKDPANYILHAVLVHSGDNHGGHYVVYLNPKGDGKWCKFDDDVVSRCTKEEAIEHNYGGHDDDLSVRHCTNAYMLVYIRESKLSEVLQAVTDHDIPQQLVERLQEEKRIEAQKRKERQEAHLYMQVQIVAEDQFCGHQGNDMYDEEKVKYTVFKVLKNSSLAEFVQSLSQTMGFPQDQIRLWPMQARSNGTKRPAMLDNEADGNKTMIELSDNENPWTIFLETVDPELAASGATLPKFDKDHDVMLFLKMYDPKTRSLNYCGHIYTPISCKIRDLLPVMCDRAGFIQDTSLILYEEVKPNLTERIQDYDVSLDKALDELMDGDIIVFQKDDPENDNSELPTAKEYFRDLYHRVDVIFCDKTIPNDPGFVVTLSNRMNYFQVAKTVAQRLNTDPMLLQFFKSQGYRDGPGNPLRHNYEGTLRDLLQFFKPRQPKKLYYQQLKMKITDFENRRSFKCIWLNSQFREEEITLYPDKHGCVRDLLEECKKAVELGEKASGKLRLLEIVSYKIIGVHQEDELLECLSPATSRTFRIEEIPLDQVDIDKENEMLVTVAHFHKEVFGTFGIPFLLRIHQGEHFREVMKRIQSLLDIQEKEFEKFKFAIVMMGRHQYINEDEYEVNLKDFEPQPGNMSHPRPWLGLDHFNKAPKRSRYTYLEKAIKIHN
Test: USP7 activity assay
Type: biochemical
In textbook form, pIC50 equals minus log to base ten of the concentration in mol/L.

compound	measurement-target	pIC50
N#Cc1nc2c(nc1C#N)-c1cc(Cl)c(Cl)cc1C2=O	USP7 (Homo sapiens, UniProt Q93009)	6.23

Name the recorded pIC50 for CON=C1c2ccccc2-c2nc(C(N)=O)c(C#N)nc21 [Example 34d] .
6.40

For C=CCON=C1c2ccc(Cl)cc2-c2nc(C#N)c(C#N)nc21 [Example 27c] , what is its reported pIC50?
5.46

Name the recorded pIC50 for `CCc1ccc2c(c1)-c1nc(C#N)c(C#N)nc1C2=O` .
5.59

src = patent US8648076B2
